Origin of values: paper PMC8299219

target: SARS-CoV-2 S ectodomain trimer, prefusion-stabilized, 2P variant (Wrapp et al., 2020) (SARS-CoV-2, Wuhan-Hu-1, UniProt P0DTC2, stabilised)
RECORDED ENDPOINT: binding result

BINDER: C53F11 (antibody, V domains shown) VH: QVQLQESGPGLVKPSETLSLTCTVSGYSISSGYYWGWIRQPPGKGLEWIGSIYHSESTYYNPSLKSRVTISVDTSKSQFSLKLSSVTAADTAVYYCGRSLWDSIWEDHIGAVDYWGQGTLVTVSS VL: QSALTQPASVSGSPGQSITISCTGTSSDVGNYNLVSWYQQHPGKAPKLMIYEGSKRPSGVSNRFSGSKSGNTASLTISGLQAEDEADYYCCSYAGSSILWVFGGGTKLTVL
binding result: binds
--
BINDER: C12J11 (antibody, V domains shown) VH: QVQLQESGPGLVKPSGTLSLTCAVSGGSISSSNWWSWVRQPPGKGLEWIGEIYHSGSTNYNPSLKSRVTISVDKSKNQFSLKLSSVTAADTAVYYCAIRASGYYNWFDPWGQGTLVTVSS VL: QSALTQPASVSGSPGQSITISCTGTSSDVGSYNLVSWYQQHPGKAPKLMIYEGSKRPSGVSNRFSGSKSGNTASLTISGLQAEDEADYYCYSYAGSSTWVFGGGTKLTVL
binding result: binds
--
BINDER: C15D4 (antibody, V domains shown) VH: QVQLQQWGAGLLKPSETLSRTCAVYGGSFSGYYWTWIRQPPGMALEWIGDINHGGVTNYNPSLKSRVTISVDTSKNQFSLRLTSVTAADTAVYYCARRLLGDPRPASSSLSLRRVSYMDVWDKGTTVTVSS VL: DIQMTQSPSSMSASVGDRVTITCRASQSISNYLNWYQQKPGRAPKLLIYGASSLQSGVPSRFGGSGSGTEFTLTITALQPEDSATYYCQQIHGAPPITFGQGTRLEIK
binding result: binds
--
BINDER: C98C7 (antibody, V domains shown) VH: EVQLVESGGGLVQPGGSLRLSCAASGITVSSNYMSWVRQAPGKGLEWVSVIYSGGSTFYADSVKGRFTISRDNSKNTLYLQMSSLRAEDTAVYYCARDLVVFGMDVWGQGTTVTVSS VL: EIVLTQSPGTLSLSPGETATLSCRASQSVGSSYLTWYQQKPGQAPRLLIYGASSRATGIPDRFSGSGSGTDFTLTISRLEPEDFAVYYCQHYGSSPTFGQGTKVEIK
binding result: binds
--
BINDER: C882C6 (antibody, V domains shown) VH: QVQLVESGGGVVQPGRSLRLSCAASGFTFSNFAIHWVRQAPGKGLEWVAVVSYDGGNKYYADSVKGRFTISRDNSKNTLYLQMNSLRAEDTSVYYCARSGSGNYYGWFDPWGQGTLVTVSS VL: QSALTQPASVSGSPGQSITISCTGTSSDVGSYNLVSWYQQHPGKAPKLMIYEGSKRPSGVSNRFSGSKSGNTASLTISGLQAEDEADYYCCSYAGSSTWVFGGGTKLTVL
binding result: binds
--
BINDER: G32L7 (antibody, V domains shown) VH: EVQLLESGGGSVQPGGSLRLSCAASGFTFSSYAMSWVRQAPGKGLEWVSVISGSGGSTYYADSVKGRFTISRDNSKNTLYLQMNSLRAEDTAVYYCAKAERITMLVVVTLIDYWGQGTLVTVSS VL: QSVLTQPPSVSAAPGQKVTISCSGSSSNIGNNYVSWYQQLPGTAPKLLIYDNNKRPSGIPDRFSGSKSGTSATLGITGLQTGDEADYYCGTWDSSLSAVVFGGGTKLTVL
binding result: binds
--
BINDER: C89A5 (antibody, V domains shown) VH: QVQLVESGGGVVQPGRSLRLPCAASGFSFSGYAMHWVRQAPDKGLEWMAVISFDGSTKTYADSVRGRFTISRDNSKNTLYLQIHTLRTEDTAVYYCARGGGGGDGAFDNWGGGTMVTVSS VL: DVVMTQSPLSLPVTLGQPASISCRSSQSLVYSDGNTYLIWFQQRPGQSPRRLIYKVSNRDSGVPDRFSGSGSGTDFTLKISRVEADDVGVYYCMQTTHWPYTFGQGTKLEIK
binding result: binds
--
BINDER: C81D9 (antibody, V domains shown) VH: QVQLVESGGGVVQPGRSLRLSCAASGFTFSSYAMHWVRQAPGKGLEWVAVISYDGSNKYYADSVRGRFTISRDNSKNTLYLQMNSLRAEDTAVYYCARAWGGSYRGGLDYWGQGTLVTVSS VL: DIQMTQSPSSLSASVGYRVTITCRASQSISSWLAWYQQKPGKAPKLLIYKASSLESGVPSRFSGSGSGTEFTLTISSLQPDDFATYYCQQYNSYWTFGQGTKVEIK
binding result: binds

Give binding result for the following binder: C81G9 (antibody, V domains shown) VH: EVQLVESGGGLVQPGGSLRLSCAASGFTFSSYSVNWVRQAPGKGLEWVSYISSSSLTIYYADSVKGRFIISRDNAKNSLYLQMNSLRDEDTAVYHCAREGPSSSWFSYYYMDVWGKGTTVTVSS VL: QSALTQPASVSGSPGQSITISCTGTSSDVGSYNLVSWYQQHPGKAPKLMIYEGSKRPSGVSNRFSGSKSGNTASLTISGLQAEDEAEYYCCSYAGSSTSPYVFGTGTKVTAL binds

Give binding result for the following binder: C102A5 (antibody, V domains shown) VH: QVQLVESGGGVVQPGRSLRLSCAASGFTFSTYAMHWVRQAPGKGLEWVAVISYDGSNKYYADSVKGRFTISRDNSKNTLYLQMNSLRAEDTAVYYCARDLGTYRWFDPWGQGTLVTVSS VL: DIQMTQSPSSVSASVGDRVTITCRASQGISSWLAWYQQKPGKAPKLLIYAASSLQSGVPSRFSGSGSGTDFTLTISSLQSEDFATYYCQQANSFPSFTFGPGTKVEIK binds
